Origin of the recorded values: PubChem BioAssay (EPA / NIEHS)

Experiment: ATG_CRE_CIS: Attagene CIS-FACTORIAL HepG2 Assay for human cAMP Responsive Element (CRE) binding protein 3 (AID 2282926)
Settings: HepG2 CRE cis-reporter, Attagene multiplexed mRNA; actives raise or lower the signal
Calls of active or inactive are those of the source. The calls were made as follows: active = hit-call score of the fitted dose curve at least 0.9, where 1 is the maximum; inactive = score below 0.9.
// classify into active, inactive

For orientation, consider the following solved cases.
                     smiles_structure  answer_label
0  O=P(Oc1ccccc1)(Oc1ccccc1)Oc1ccccc1      inactive
1           CC(C)Nc1ccc(Nc2ccccc2)cc1      inactive
2          CCNc1nc(Cl)nc(NC(C)(C)C)n1      inactive
3                      [N-]=[N+]=[N-]      inactive

Ask: How was CCOP(=S)(OCC)SCSCC classified in this test?
Reply: inactive

Ask: Could you please tell me the result logged for CCOP(=S)(OCC)SCS(=O)(=O)CC in this assay?
Reply: inactive

Ask: Could you check what this test reported for CN(C)C(=O)Cl ?
Reply: inactive

Ask: Answer briefly: the call reported for CC(=O)CCc1ccc2c(c1)OCO2 in this assay.
Reply: inactive

Ask: Recorded call for Cc1ccc(C(=O)Cl)cc1 ?
Reply: inactive

Ask: I'd appreciate the recorded outcome for FC(F)(F)c1ccc(Cl)cc1 from this test.
Reply: inactive

###

Read-out: Vascular cell adhesion molecule 1 (VCAM1), VCAM1 (gene 7412)
Test: BSK_MyoF_VCAM1: BioMAP Diversity Plus: MyoF Assay for Vascular cell adhesion molecule 1 (VCAM1) Biomarker Activity (AID 2284231)
Conditions: primary human lung fibroblasts
Activity calls are given as the source filed them. Rule for the calls: active = hit-call score of the fitted dose curve at least 0.9, where 1 is the maximum; inactive = score below 0.9.
Outcomes you can answer with include only these: active, inactive

Look over these answered cases.
In [3]: df
Out[3]:
                                   compound  answer_label
0  CCCCC(CC)COC(=O)c1c(Br)c(Br)c(Br)c(Br)c1C(=O)OCC(CC)CCCC (centres undefined)      inactive
1  O=C(O)C(F)(F)OC(F)(F)C(F)(F)OC(F)(F)C(=O)O      inactive
2              CCOP(=S)(OCC)SCSc1ccc(Cl)cc1      inactive

Now for another entry.
Ask: Call for entry Cc1c([N+](=O)[O-])cc2c(c1[N+](=O)[O-])C(C)(C)CC2(C)C :
Reply: active

###

Experiment: CCTE_Shafer_MEA_dev_firing_rate_mean: CCTE's Neural Network Formation Assay for Mean Firing Rate, Shafer Lab (AID 2284031);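 also: AUC of well mean spike rate recorded on DIV 5 7 9 and 12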
Calls of active or inactive are those of the source. How the source made its calls: active means hit-call score of the fitted dose curve at least 0.9, where 1 is the maximum; inactive means score below 0.9.
I would appreciate it if you answered using one of these outcomes: yes (1) = active, no (0) = inactive

Study these solved cases before continuing.
>>> df
                                   molecule  answer_label
0  CC(C)(C)c1ccccc1OP(=O)(Oc1ccccc1)Oc1ccccc1        no (0)
1  CCC1(c2ccccc2)C(=O)N=C(O)NC1=O (configuration not stated)        no (0)
2     O=C(O)C(F)(F)OC(F)(F)C(F)(F)OC(F)(F)F        no (0)
3  O=P1(N(CCCl)CCCl)NCCCO1 (configuration not stated)        no (0)
4  ClC1=C(Cl)C2(Cl)C3C(Cl)C(Cl)CC3C1(Cl)C2(Cl)Cl (configuration not stated)       yes (1)

Ask: Hi, sorry to bother you, what did the test record for c1ccc(OP(Oc2ccccc2)Oc2ccccc2)cc1 ?
Reply: no (0)

Ask: Test call, this molecule: CCOc1ccc(C(C)(C)COCc2cccc(Oc3ccccc3)c2)cc1
Reply: yes (1)

Ask: Assay result, entry O=S(=O)(c1ccc(O)cc1)c1ccc(O)cc1 — outcome?
Reply: no (0)

Ask: Field: outcome | Entry: O=P(Oc1ccccc1)(Oc1ccccc1)Oc1ccccc1
Reply: no (0)

Ask: Per the records of this test, what outcome belongs to CC(O)C(F)(F)C(F)(F)F (configuration not stated) ?
Reply: no (0)

Ask: Call for entry CCCCC(CC)COC(=O)c1c(Br)c(Br)c(Br)c(Br)c1C(=O)OCC(CC)CCCC (configuration not stated) :
Reply: no (0)

Ask: Fill in: this test's call for O=C(O)C=CC(F)(C(F)(F)F)C(F)(F)F is ___
Reply: no (0)
